# system: Concanavalin-A (Canavalia ensiformis) (UniProt P02866)
# Sequence (P02866 whole entry, looked up): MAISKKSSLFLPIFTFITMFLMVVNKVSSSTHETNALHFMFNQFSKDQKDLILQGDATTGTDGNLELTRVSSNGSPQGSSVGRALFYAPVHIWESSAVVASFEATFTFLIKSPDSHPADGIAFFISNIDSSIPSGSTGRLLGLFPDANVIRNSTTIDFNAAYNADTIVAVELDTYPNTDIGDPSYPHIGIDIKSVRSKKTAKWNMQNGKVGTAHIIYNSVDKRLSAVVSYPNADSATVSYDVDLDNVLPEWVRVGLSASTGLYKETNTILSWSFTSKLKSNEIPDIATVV
# measurementProtocol: ConA small-molecule binders, primary screen, artefact control for SMM control protein annotation, biochemical, small-molecule microarray, Alexa647 label, 635 nm (AID 1127);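 note: z combines 667 nm emission intensity with signal-to-noise across three replicate slides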
# testContext: ConA-A647 binding fluorescence, higher = more signal
Tick y if composite z-score is 0.5 or greater. Tick n if composite z-score is less than 0.5.

Worked examples follow.
molecule	classification
CN1C(=O)C2C=CC(C(O)c3ccccn3)N(N(c3ccccc3)c3ccccc3)C2C1=O (stereo not given)	n
COc1ccc(-c2cc3c(c(CCc4ccccc4)n2)[Si](C(C)C)(C(C)C)OC3)cn1	n
CC(C)[Si](C#C[Si](C(C)C)(C(C)C)C(C)C)(O[C@H](C)c1cn([C@H](CO)Cc2ccccc2)nn1)C(C)C	y
CC(C)C(=C=CC[C@H](O)c1ccc(OCCO)cc1)C[C@H](O)c1ccccn1	n
CC(=O)c1ccc(C(O)C2C=CC3C(=O)N(c4ccccc4)C(=O)C3N2Nc2ccc(C#N)cc2)cc1 (stereo not given)	y

*Q* Determine whether measured composite z-score meets or exceeds 0.5 for C=CCC(OC(C)=O)[C@@H]1[C@@H](N(Cc2cc3ccccc3o2)C(=O)c2ccc(-c3ccccc3)cc2)c2cc(OCCCO)ccc2N1C(=O)c1ccc2ccccc2c1 (stereo not given in full)
*A* n

*Q* Determine whether measured composite z-score meets or exceeds 0.5 for OCC1CC(c2ccccc2)=NO1 (stereo not given)
*A* n

*Q* Determine whether measured composite z-score meets or exceeds 0.5 for CN(C)C(=O)C1N=C(c2ccc(OCCCO)cc2)N(c2ccccc2)O1 (stereo not given)
*A* y

*Q* Determine whether measured composite z-score meets or exceeds 0.5 for CCOC(=O)C[C@H]1[C@H](OC(=O)c2ccccc2-c2ccccc2)[C@@H](NC(=O)C2CCCCC2)c2cc(OCCCO)ccc2N1C(=O)Cc1ccc(OC)cc1
*A* n

###

Each record here notes measured z-score.
# measurementProtocol: basal HepG2 mitochondrial membrane potential changes, profiling panel, cell-based, JC-1 fluorescence, 24 h, 100 nL compound (AID 1167); note: test concentration not given here
# testContext: higher = more signal
Format: numeric value only, no unit, no commentary.

Take a look at these entries with their results.
1) COC(=O)c1c2oc(c1C(=O)OC)C(=O)N(C)Cc1cn(nn1)C[C@H](Cc1ccccc1)NC(=O)N[C@H](CO)CC2 -0.649
2) COC(=O)[C@@]1(Cc2ccccc2)[C@H]2c3cc(C(=O)N(C)C)n(CCc4ccc(O)c(OC)c4)c3C[C@H]2CN1C(=O)c1ccccc1 -0.533

Please turn your attention to the following entry.
*Q* I'd like to know its z-score. The compound in question is COCCOC(=O)N1C(=O)[C@@]2(c3cc(C#CC4=CCCCC4)ccc31)[C@H](c1ccc(O)cc1)N1[C@H](c3ccccc3)[C@H](c3ccccc3)OC(=O)[C@H]1[C@@H]2C(=O)N1CCN(c2ncccn2)CC1
*A* 0.642

###

# Tested on: Human papillomavirus type 1a protein E7 (residues 44-93)
# measurementProtocol: HPV1a E7 fragment binders on microarrays, primary screen, biochemical, small-molecule microarray, residues 44-93, 635 nm fluorescence (AID 1108);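 note: E7 fragment applied at 1 µg/mL in TBST for 1 h at 4 C; score combines spot fluorescence with its signal to noise ratio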
# testContext: small-molecule microarray binding, fluorescence 635 nm; higher = more signal
valueType: composite z-score
Format: numeric value only, no unit, no commentary.

compound	valueType	quantitativeReadout
C=CCC(OC(C)=O)[C@@H]1[C@@H](N(Cc2ccc(-c3cccc(C(F)(F)F)c3)o2)C(=O)c2ccc(-c3ccccc3)cc2)c2cc(OCCCO)ccc2N1C(=O)c1ccc2ccccc2n1 (some centres not stated)	composite z-score	-0.252

*Q* I'd like to know its composite z-score. The compound in question is COc1ccc([Si](C)(C)[C@@H]2[C@@H](CC(=O)N3Cc4ccccc4C[C@H]3CO)O[C@]3(C(=O)N(C)c4ccccc43)[C@H]2C)cc1
*A* 0.215

*Q* I'd like to know its composite z-score. The compound in question is CCCNC(=O)[C@@H]1c2ccccc2C(=O)N(C(C)C)[C@H]1c1ccc(CO)cc1
*A* 0.123

*Q* I'd like to know its composite z-score. The compound in question is CC(C)C[C@@H]1NC(=O)[C@@H]2C[C@H](C(=O)NCCCCCN)[C@H](c3ccc(O)cc3)N2C1=O
*A* 1.36

*Q* I'd like to know its composite z-score. The compound in question is Cc1cc(C)c(C(O)C2C=CC3C(=O)NC(=O)C3N2Nc2ccc(Cl)cc2Cl)c(C)c1 (configuration not stated)
*A* 1.4

*Q* I'd like to know its composite z-score. The compound in question is O=C1O[C@H](c2ccccc2)[C@H](c2ccccc2)N2[C@H]1[C@@H](C(=O)N1CCN(c3ncccn3)CC1)[C@]1(C(=O)Nc3ccc(C#CC4(O)CCCCCC4)cc31)[C@H]2c1ccc(OCCO)cc1
*A* 1.44

*Q* I'd like to know its composite z-score. The compound in question is CCCCCCc1nc(C2CC2)cc2c1[Si](C(C)C)(C(C)C)O[C@H]2c1ccccc1
*A* -1.1

###

Each record here notes measured z-score.
# measurementProtocol: fission yeast growth modulation, primary screen, strain 972, OD600, 24 h, no modulator (AID 1090);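 note: basal condition with compound alone and no growth modifier present; test concentration not given here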
# testContext: S. pombe 972 growth, higher = more signal, called active from +8 up or from −8 down
Format: numeric value only, no unit, no commentary.

Take a look at these entries with their results.
molecule	z-score
[N-]=[N+]=Nc1ccccc1C[C@]1(C(N)=O)N=C(c2ccc(OCCCO)cc2)O[C@H]1c1ccccc1N=[N+]=[N-]	-1.28
COc1ccc([Si](C)(C)[C@@H]2[C@@H](CC(=O)N3Cc4ccccc4C[C@H]3CO)O[C@]3(C(=O)N(Cc4cccc(N5C(=O)c6cccc7cccc5c67)c4)c4ccccc43)[C@H]2C)cc1	0.93
CCOC(=O)C1=C[C@@H](c2ccccc2)N(S(=O)(=O)c2ccc(C)cc2)[C@H]1c1ccccc1Cl	2.19
C=CCNC(=O)[C@@H]1[C@H]2C(=O)O[C@H](c3ccccc3)[C@H](c3ccccc3)N2[C@H](c2ccc(O)cc2)[C@@]12C(=O)N(C(=O)OCCOC)c1ccc(C#CC3(O)CCCCCC3)cc12	0.183

*Q* I'd like to know its z-score. The molecule in question is CN(C)CCCNC(=O)[C@@]1(C)c2ccccc2C(=O)N(Cc2ccccc2)[C@H]1c1ccc(CO)cc1
*A* -0.505

*Q* I'd like to know its z-score. The molecule in question is COCCCNC(=O)[C@@]1(Cc2ccccc2CN=[N+]=[N-])N=C(c2ccc(OCCCO)cc2)O[C@H]1c1ccccc1
*A* 1.04

*Q* I'd like to know its z-score. The molecule in question is [N-]=[N+]=NCc1ccccc1C[C@@]1(C(=O)NCc2ccccc2)N=C(c2ccc(OCCCO)cc2)O[C@@H]1c1ccccc1N=[N+]=[N-]
*A* 1.57

*Q* I'd like to know its z-score. The molecule in question is CCOC(=O)C[C@H]1[C@H](OC(=O)c2cc3ccccc3oc2=O)[C@@H](NC(=O)c2ccc(-c3ccccc3)cc2)c2cc(OCCCO)ccc2N1C(=O)c1ccccc1
*A* -1.64

*Q* I'd like to know its z-score. The molecule in question is O=C1O[C@H](c2ccccc2)[C@H](c2ccccc2)N2[C@H]1[C@@H](C(=O)N1CCN(c3ncccn3)CC1)[C@]1(C(=O)Nc3ccc(C#CC4(O)CCCCCC4)cc31)[C@H]2c1ccc(OCCO)cc1
*A* 1.42

*Q* I'd like to know its z-score. The molecule in question is COc1ccc(CCNC(=O)[C@@H]2c3ccccc3C(=O)N(Cc3cc(C(F)(F)F)cc(C(F)(F)F)c3)[C@H]2c2ccc(CO)cc2)cc1
*A* -0.381

*Q* I'd like to know its z-score. The molecule in question is COc1cc(OC)c(C(O)C2C=CC3C(=O)N(C)C(=O)C3N2NC(=O)OC(C)(C)C)cc1Br (configuration not stated)
*A* -0.324

*Q* I'd like to know its z-score. The molecule in question is COCCOC(=O)N1C(=O)[C@@]2(c3ccccc31)[C@H](C(=O)N1CCN(c3ncccn3)CC1)[C@H]1C(=O)O[C@H](c3ccccc3)[C@H](c3ccccc3)N1[C@@H]2c1ccc(O)cc1
*A* 1.07

###

# measurementProtocol: small-molecule binders of probe aInhba, primary screen, biochemical, small-molecule microarray, 635/667 nm fluorescence (AID 1148);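 note: score merges 667nm spot fluorescence with signal-to-noise for antibody binding to printed compounds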
# testContext: higher = more signal
Tick class 1 if composite z-score is 0.2 or greater. Tick class 0 if composite z-score is less than 0.2.

Worked examples follow.
compound	classification
COC(=O)[C@@]1(Cc2ccc(OC)cc2)[C@H]2c3cc(C(=O)N(C)C)n(Cc4ccc(Cl)c(C(F)(F)F)c4)c3C[C@H]2CN1C(=O)c1ccccc1	class 1
C=CCOC(=O)[C@H]1[C@@H]2C(=O)O[C@@H](c3ccccc3)[C@@H](c3ccccc3)N2[C@@H](c2ccc(OCCOC(=O)[C@@H]3C[C@@H]4C(=O)N[C@@H](CCCCNC(C)=O)C(=O)N4[C@@H]3c3ccc(O)cc3)cc2)[C@]12C(=O)Nc1ccc(I)cc12	class 1

*Q* Determine whether measured composite z-score meets or exceeds 0.2 for NC(=O)NCC#Cc1ccc2c(c1)[C@]1(C(=O)N2)[C@H](C(=O)NC[C@H](O)c2ccccc2)[C@H]2C(=O)O[C@H](c3ccccc3)[C@H](c3ccccc3)N2[C@@H]1c1ccc(OCCO)cc1
*A* class 0

*Q* Determine whether measured composite z-score meets or exceeds 0.2 for O=C1NC(=O)C2C1C=CC(C(O)c1c(F)cccc1Cl)N2Nc1ccc(Cl)cc1Cl (centres undefined)
*A* class 1

*Q* Determine whether measured composite z-score meets or exceeds 0.2 for COCC1=C2[C@@H](CCc3ccccc3)OB(O)C[C@@H]2[C@@H]2C(=O)C=CC(=O)[C@@H]2C1
*A* class 0

*Q* Determine whether measured composite z-score meets or exceeds 0.2 for Cc1cc(C)c(C(O)C2C=CC3C(=O)N(c4ccccc4)C(=O)C3N2Nc2ccc(C(C)C)cc2)c(C)c1 (centres undefined)
*A* class 1

*Q* Determine whether measured composite z-score meets or exceeds 0.2 for COc1ccccc1CN1C(=O)c2ccccc2[C@@]2(Cc3ccccc3N(CC(F)(F)F)C2=O)[C@@H]1c1ccc(CO)cc1
*A* class 0

*Q* Determine whether measured composite z-score meets or exceeds 0.2 for O=C1O[C@@H](c2ccccc2)[C@@H](c2ccccc2)N2[C@@H](c3ccc(OCCO)cc3)[C@]3(C(=O)Nc4ccccc43)[C@@H](C(=O)O)[C@H]12
*A* class 1

*Q* Determine whether measured composite z-score meets or exceeds 0.2 for C#CCN([C@@H](Cc1ccc(O)cc1)C(=O)OC)[C@@H](/C=C/C1CC1)[C@H](O)Cc1ccccc1
*A* class 0

The measured values listed here are drawn from PubChem BioAssay.
